Exercise: state measured TGI for each of the compounds provided.
Tested on: SN12C renal
Test: NCI tumour cell line growth inhibition, 48 h

Prompt line: State the recorded TGI for this entry: COC(=O)c1ccc2c(c1)c1c(C)c3cnccc3c(C)c1n2C
Response line: 1.3 µM

Prompt line: May I ask what TGI has been recorded for ClCCn1cnc2c(SCc3ccccc3)ncnc21 ?
Response line: > 100 µM

Prompt line: What value of TGI has been reported for the following compound? COC(=O)c1c(O)ccc2c1c1c(n2C)C(=O)c2ccccc2C1=O
Response line: > 100 µM

Prompt line: Form field: reported TGI of COC1C(=O)CCC2(CO2)C1(O)C1(C)OC1CCC(C)C (stereo not drawn)
Response line: > 100 µM

Prompt line: Return reported TGI; argument: N#CC(c1ccccc1)c1cccc2ccccc12 (stereo not drawn)
Response line: > 100 µM

Prompt line: Consider the compound shown here: COC1CCC(OC2CC(C3(C)CCC4(CC(O)C(C)C(C(C)/C=C(\C)C(=O)C(C)CC(C)C(=O)O)O4)O3)OC3(OC(C4OC(O)(CO)C(C)CC4C)CC3C)C2C)OC1C (stereo not drawn) What is its recorded TGI?
Response line: 1.55 µM

Prompt line: What does the data say about its TGI? Entry: CCc1cccc(C)c1NC(=O)CC1Sc2ccccc2NC1=O (stereo not drawn)
Response line: > 100 µM

Prompt line: Entry O=C(c1ccco1)N(C(=S)N1CCN(c2ccccc2)CC1)c1ccccc1 : reported TGI = ?
Response line: > 100 µM

Prompt line: Fill in: TGI of S=C1CC(c2ccc(Cl)cc2)Sc2ccccc2N1 (stereo not drawn) is ___
Response line: > 100 µM

Prompt line: Request the reported TGI associated with CCCN(CCCCC(NC(C)=O)C(=O)NCc1ccccc1)C(=O)NC (stereo not drawn)
Response line: > 100 µM

Prompt line: Could you tell me which TGI is on file for COc1ccc(-c2cn3ccnc3c(-c3ccc4ncn(C5CCCCC5)c4c3)n2)cc1 ?
Response line: > 100 µM

Prompt line: Could you tell me which TGI is on file for OCCCNCc1ccccn1 ?
Response line: > 100 µM

Prompt line: Using the record for c1ccc(N=NNNc2ccc(-c3nc4ccccc4[nH]3)cc2)cc1 , report its TGI.
Response line: 98.1 µM

Prompt line: Item Fc1cccc2nc(-c3ccccc3)cc(OCc3ccccc3)c12 has what recorded TGI?
Response line: > 100 µM

Prompt line: Could you tell me which TGI is on file for CCn1c2c(c3c(C(=O)OC)c(O)ccc31)C(=O)c1ccccc1C2=O ?
Response line: 29.4 µM

Prompt line: What does the data say about its TGI? Entry: CC1(C)C(=O)/C(=C\c2ccco2)C[C@]2(C)[C@H]3CC=C4[C@@H]5C[C@](C)(C(=O)O)CC[C@]5(C)CC[C@@]4(C)[C@]3(C)CC[C@@H]12
Response line: 26 µM

Prompt line: What TGI value was documented for this compound, Cc1ccc2[nH]c(=O)c(-c3cnc(=O)[nH]n3)c(O)c2c1 ?
Response line: > 100 µM

Prompt line: Give its TGI value. Item: CN(C)CCNc1cccc2sc3ccc(O)cc3c(=O)c12
Response line: 13.6 µM

Prompt line: Suppose we examine the compound COc1cc(C2c3cc4c(cc3OC(N3CCOCC3)C2C)OCO4)cc(OC)c1O (stereo not drawn) ; what TGI value has been reported?
Response line: 54.3 µM

Prompt line: Name the recorded TGI for CC1CC[C@]2(C(=O)O)CCC3(C)C(=C2[C@H]1C)C=CC1[C@@]2(C)CC[C@H](O)C(C)(C)C2CC[C@]13C (stereo partly drawn) .
Response line: > 100 µM

Prompt line: What value of TGI has been reported for the following compound? Cc1c2ncccc2c(C)c2c1[nH]c1ccccc12
Response line: 26 µM

Prompt line: Item O=c1oc2c3ccc4ccccc4c3n(Cc3nc4ccccc4[nH]3)c2c2ccccc12 has what recorded TGI?
Response line: > 100 µM

Prompt line: If you can, please state the reported TGI value of CC1=C2N3C[C@@H](n4c(=O)n(C)c(=O)n43)C23CCC1n1c(=O)n(C)c(=O)n13 .
Response line: > 100 µM

Prompt line: What does the data say about its TGI? Entry: NNC(=O)c1ccccc1NC(=O)/C(=C/c1ccccc1)NC(=O)c1ccccc1
Response line: > 100 µM

Prompt line: Given O=C(N/N=C/c1ccc(F)cc1)c1[nH]c2ccc(I)cc2c1-c1ccccc1 , state its recorded TGI.
Response line: > 100 µM

Prompt line: # lookup: TGI of Cc1c(C(=O)CC(=O)C(=O)NC2C3CC4CC(C3)CC2C4)[n+](=O)c2ccccc2n1[O-] (stereo not drawn)
Response line: > 100 µM

Prompt line: Find the recorded TGI belonging to COc1ccc([N+](=O)[O-])c2c(NCC(O)CO)ccnc12 (stereo not drawn) and report it.
Response line: > 100 µM

Prompt line: Look up TGI: COC(=O)C(Cc1ccccc1)NC(=O)CNC(=O)CSc1nnc(COc2ccc(Cl)cc2)n1-c1ccccc1 (stereo not drawn)
Response line: 32.5 µM

Prompt line: Recorded TGI for O=C(O)C(Cc1ccc(O)c([N+](=O)[O-])c1)N1C(=O)c2ccccc2C1=O (stereo not drawn) , please?
Response line: > 100 µM

Prompt line: Can you look up the measured TGI of Cc1ccc(S(=O)(=O)ON/N=C2/C3OC3[C@@H]3CCCC[C@H]23)cc1 (stereo partly drawn) for me?
Response line: > 100 µM

Prompt line: I would be grateful if you could share the reported TGI for Cc1ccc2c(c1)sc(-c1ccc(N(C)C)cc1)[n+]2C .
Response line: 42.8 µM

Prompt line: Could you share which TGI value was measured for O=C(CCCC(=O)N1CC(CCl)c2ccc([N+](=O)[O-])cc21)N1CC(CCl)c2ccc([N+](=O)[O-])cc21 (stereo not drawn) ?
Response line: > 100 µM

Prompt line: Param item = CCOC(=O)/C(C1=CC(=O)C(=O)c2ccccc21)=C(/C)NCc1ccccc1 ; retrieve measured TGI.
Response line: 5.09 µM

Prompt line: Sample Cc1ccc(-c2cc3nc(-c4ccccc4)nc(C(Cl)Cl)n3n2)cc1 — what was its TGI?
Response line: > 50 µM

Prompt line: Given the entry CN(C)Cc1cc(N=Nc2ccc(Cl)c(Cl)c2)ccc1O , report its measured TGI.
Response line: 27.8 µM

Prompt line: Give its TGI value. Item: CC1=Nn2c(nc3sc4c(c3c2=O)CCCC4)SC1
Response line: > 100 µM

Prompt line: Return reported TGI; argument: O=C1OCC2=Nc3cccc4cccc(c34)N12
Response line: > 100 µM

Prompt line: For the compound O=C(Nc1ccc(Br)cc1)c1cc(Br)cc(Br)c1O , what TGI is on record?
Response line: 12.9 µM

Prompt line: Could you share which TGI value was measured for Cc1cc2occ(C)c(=O)c2c2c1OC(C)(C)S2 ?
Response line: > 100 µM

Prompt line: Entry under review: CCOC(=O)C(=O)Nc1c(C)cccc1CC . Reported TGI?
Response line: > 100 µM

Prompt line: Entry COc1nc2c(c(=O)n1C)N[C@@H]1[C@@H](O)[C@H](O)CO[C@@H]1N2 : reported TGI = ?
Response line: > 100 µM

Prompt line: Quick check: TGI of Cc1ccc(N2C(=O)C(Cl)=C(Nc3cccc(O)c3)C2=O)cc1Cl ?
Response line: 44.1 µM

Prompt line: Field request: TGI | item: CCN(CC)C(=S)SSC1CCCCC1
Response line: 31.2 µM

These measurements were taken from PubChem BioAssay (NCI).
